Hello, the source for this data is patent US20230192890A1, in case you need it.

biological target: T1, full-length recombinant human PAD4 (human, UniProt Q9UM07 1-663); assay: ELISA, human PAD4 on plate, antibody 0.0625 ug/mL
T1 construct: also called peptidylarginine deiminase 4
T1 sequence (Q9UM07 whole entry): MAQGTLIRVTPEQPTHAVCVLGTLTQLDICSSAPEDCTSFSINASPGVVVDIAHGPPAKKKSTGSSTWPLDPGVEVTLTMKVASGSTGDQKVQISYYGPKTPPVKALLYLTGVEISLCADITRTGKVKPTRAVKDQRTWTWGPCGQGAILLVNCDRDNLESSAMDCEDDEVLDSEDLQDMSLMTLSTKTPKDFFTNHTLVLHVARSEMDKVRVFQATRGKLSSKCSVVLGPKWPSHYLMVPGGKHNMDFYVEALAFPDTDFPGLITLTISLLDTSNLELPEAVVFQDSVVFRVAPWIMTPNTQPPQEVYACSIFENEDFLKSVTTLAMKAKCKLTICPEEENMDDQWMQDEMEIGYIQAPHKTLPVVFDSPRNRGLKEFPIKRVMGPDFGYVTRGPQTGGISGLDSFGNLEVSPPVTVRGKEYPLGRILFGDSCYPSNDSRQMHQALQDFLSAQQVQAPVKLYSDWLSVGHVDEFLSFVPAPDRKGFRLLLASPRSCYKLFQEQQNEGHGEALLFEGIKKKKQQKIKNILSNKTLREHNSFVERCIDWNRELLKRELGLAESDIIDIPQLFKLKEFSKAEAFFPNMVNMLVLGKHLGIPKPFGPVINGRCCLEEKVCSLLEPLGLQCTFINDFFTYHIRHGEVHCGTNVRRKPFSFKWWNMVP
PARAMETER MEASURED: absorbance 490 nm/630 nm (OD)
Write down the numeric answer in OD and omit the unit.

Observe how each entry below is paired with its result.
E9 (antibody, IgG1, V domains shown, Chicken variable regions in mouse chimeric antibody (IgG1) expression vectors; also called anti-PAD4 antibody E9; A11 etc) VH: AVTLDESGGGLQTPGGTLSLVCKGSGFTFSSYGMGWMRQAPGKGLEYVAAIRNDGSWTGYGSAVKGRATISRDNGQSTVRLQLNNLRAEDTATYYCAKTSGSSGGSVDAWGHGTEVIVS VL: ASTQPSSVSANLGGTVEITCSGGGRYYYGWYQQKSPGSAPVTVIYANDKRPSDIPSRFSGSKSGSTGTLTITGVQAEDEAVYFCGSAETSSYVFGAGTTLTVL: 2.12
G9 (antibody, IgG1, V domains shown, Chicken variable regions in mouse chimeric antibody (IgG1) expression vectors; also called anti-PAD4 antibody G9; A11 etc) VH: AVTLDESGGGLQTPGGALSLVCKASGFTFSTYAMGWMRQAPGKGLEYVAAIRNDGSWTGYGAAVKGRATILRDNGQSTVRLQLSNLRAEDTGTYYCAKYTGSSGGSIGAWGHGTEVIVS VL: AVTQPASVSANLGGTVEITCSGGGRYYYGWYQQKSPGSAPVTVIYANDKRPSDIPSRFSGSKSGSTGTLTITGVQAEDEAVYFCGSAETSSYVFGAGTTLTVL: 2.11
H7 (antibody, IgG1, V domains shown, Chicken variable regions in mouse chimeric antibody (IgG1) expression vectors; also called anti-PAD4 antibody H7; A11 etc) VH: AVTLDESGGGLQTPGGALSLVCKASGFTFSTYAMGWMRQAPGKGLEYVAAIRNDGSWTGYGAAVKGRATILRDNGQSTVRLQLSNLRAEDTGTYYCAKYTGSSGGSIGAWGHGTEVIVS VL: ASTQPSSVSANPGGTVEITCSGGSGRYYYGWYQQKSPGSAPVTVIYSSTHRPSNIPSRFSGSKSGSTATLTITGVQAEDEAVYFCGTADSSSYVFGAGTTLTVL: 2.12
A11 (antibody, IgG1, V domains shown, Chicken variable regions in mouse chimeric antibody (IgG1) expression vectors; also called anti-PAD4 antibody A11; A11 etc) VH: AVTLDESGGGLQTPGGALSLVCKASGFDFSSYGMGWMRQAPGKGLEYVAAIRNDGSWTGYGAAVKGHATISRDNGQSTVRLQLNNLRAEDTGTYYCAKTTGSRGGSIDAWGHGTEVIVS VL: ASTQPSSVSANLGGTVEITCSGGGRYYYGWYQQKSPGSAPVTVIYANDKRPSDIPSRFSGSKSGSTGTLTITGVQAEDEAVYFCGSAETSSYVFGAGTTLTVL: 2.15
G6 (antibody, IgG1, V domains shown, Chicken variable regions in mouse chimeric antibody (IgG1) expression vectors; also called anti-PAD4 antibody G6; A11 etc) VH: AVTLDESGGGLQTPGGALSLVCKASGFTFSSYGMEWVRQAPGKGLEYVAAIRNDGSWTGYGAAVKGRATISRDDGQSTLRLQLNNLRAEDTATYYCAKTTGSSGGSIDAWGHGTEVIVS VL: ASTQPSSVSANLGETVKITCSGGGNYYYGWYQQKSPGSAPVTLIYANDKRPSNIPSRFSGSKSGSTGTLTITGVQAEDEAVYFCGTADTGKYVFGAGTTLTVL: 2.12

// next item, absorbance 490 nm/630 nm requested
Ask: Fill in: absorbance 490 nm/630 nm of G8 (antibody, IgG1, V domains shown, Chicken variable regions in mouse chimeric antibody (IgG1) expression vectors; also called anti-PAD4 antibody G8; A11 etc) VH: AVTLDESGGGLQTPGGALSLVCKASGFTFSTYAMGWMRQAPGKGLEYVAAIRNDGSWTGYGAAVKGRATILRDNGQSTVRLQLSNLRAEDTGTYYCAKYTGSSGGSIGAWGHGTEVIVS VL: ASTQPSSVSANLGGTVEITCSGGNRNYYYGWYQQKSPGSAPVTLIYANDKRPSNIPSRFSGSKSGSTGTLTITGVQAEDEAVYFCGTADTGKYVFGAGTTLTVL is ___
Result: 2.12
